# Test system: HS 578T breast
# ASSAY_SUMMARY: NCI tumour cell line growth inhibition, 48 h; in the data active = GI50 below about 0.43 µM; inactive = the rest
Possible outcomes: 1 (yes) for active, 0 (no) for inactive

> print(dat)
                                smiles.code  category
1  COc1ccc(C#Cc2ccc(=O)oc2-c2cc(OC)c(OC)c(OC)c2)cc1O    0 (no)
2  Cc1ccc2oc(=O)cc(/C(=C3/C=CC=N3)c3ccc[nH]3)c2c1   1 (yes)
3  COc1cc(C(=O)O[C@H](C(=O)NCCCNC(=O)[C@@H](OC(=O)c2cc(OC)cc3c(C)cccc23)[C@]2(C)CO2)[C@]2(C)CO2)c2cccc(C)c2c1   1 (yes)
4           CCN1CCC(Nc2ccnc3cc(Cl)ccc23)CC1    0 (no)
5  O=C(Nc1ccc(Cc2ccccc2)cc1)Nc1nn(C(=O)Nc2ccc(Cc3ccccc3)cc2)c2ccccc12    0 (no)

###

# Test system: SF-539 CNS
# ASSAY_SUMMARY: NCI tumour cell line growth inhibition, 48 h
We begin with a simple list: items and their reported log10(TGI).
QUANTITY_MEASURED: log10(TGI) (log10 of the value in µM)

COMPOUND	STUDY_SYSTEM	QUANTITY_MEASURED	ENDPOINT_RESULT
COC(=O)C1Cc2ccc(O)c(O)c2CN1 (centres undefined)	SF-539 CNS	log10(TGI)	1.51
O=[N+]([O-])C(/C=C(\Cl)[N+](=O)[O-])=C1Nc2ccccc2N1	SF-539 CNS	log10(TGI)	1.97
Nc1c(C(=O)Nc2ccccc2)sc2nc3c(cc12)CCCCC3	SF-539 CNS	log10(TGI)	1.08
CCCCCCCCCCCCCCCC1=NCCN1	SF-539 CNS	log10(TGI)	0.56
COc1ccc2c(c1)c(-c1nc(-c3c[nH]c4ncccc34)cs1)cn2CCCN1CCCCC1	SF-539 CNS	log10(TGI)	0.49
COc1c(C)cc2c(C(C)C)c(O)c(O)c(C=O)c2c1O	SF-539 CNS	log10(TGI)	1.58
CC(=O)OC1CCC2(C)C(CCC3C2CC(=O)C2(C)C3CC(N3CC3)C2C(C)=O)C1 (centres undefined)	SF-539 CNS	log10(TGI)	1.57

###

# System: SF-539 CNS
# ASSAY_SUMMARY: NCI tumour cell line growth inhibition, 48 h
QUANTITY_MEASURED: TGI

> print(dat)
                                smiles.code  endpoint.result
1  N#CCc1c(-c2ccccc2)n(S(=O)(=O)c2ccccc2)c2ccccc12         > 100 µM
2      COc1cc(-c2nccc3cc(OC)c(OC)cc23)ccc1O         > 100 µM
3    S=C(N/N=C(\c1ccccc1)c1ccccn1)NC1CCCCC1         > 100 µM

###

# Test system: LXFL 529 NSCLC
# ASSAY_SUMMARY: NCI tumour cell line growth inhibition, 48 h
We begin with a simple list: items and their reported TGI.
QUANTITY_MEASURED: TGI

> print(dat)
                                   compound    study.system  quantity.measured  endpoint.result
1  N#CCc1c(-c2ccccc2)n(S(=O)(=O)c2ccccc2)c2ccccc12  LXFL 529 NSCLC                TGI         > 100 µM
2  C=C(CO)CC(O)c1cc(OC)ccc1OC (stereo not drawn)  LXFL 529 NSCLC                TGI         > 100 µM
3    COc1c(C)cc2c(C(C)C)c(O)c(O)c(C=O)c2c1O  LXFL 529 NSCLC                TGI         > 100 µM

###

# System: SF-268 CNS
# ASSAY_SUMMARY: NCI tumour cell line growth inhibition, 48 h
QUANTITY_MEASURED: TGI

> print(dat)
                                    compound  endpoint.result
 1  CSC1NC(c2ccccc2)=C(C#N)C(=O)N1C1OCC(OC(C)=O)C(OC(C)=O)C1OC(C)=O (configuration not stated)         > 100 µM
 2             CSC(=NC#N)S/C=C/C(=O)c1ccccc1         > 100 µM
 3  COc1nc2cccc(C(O)c3ccccc3)c2nc1-c1ccccc1 (configuration not stated)          33.4 µM
 4  Cc1c(-c2ccc(C3CCCCC3)cc2)nc2ccc(F)cc2c1C(=O)O         > 100 µM
 5  C1CSCCSCCCSC2CCCCC2SC1 (configuration not stated)         > 100 µM
 6                      O=C1CSC(=S)N1c1ccco1         > 100 µM
 7       c1ccc(-c2nc3ccccc3nc2SCc2cccnc2)cc1         > 100 µM
 8  O=S(=O)([O-])c1ccc(N=Cc2ccccc2[O-])cc1.O=S(=O)([O-])c1ccc(N=Cc2ccccc2[O-])cc1.[Co+2]          79.3 µM
 9   Nc1c(C(=O)Nc2ccccc2)sc2nc3c(cc12)CCCCC3          54.4 µM
10  C=C(CO)CC(O)c1cc(OC)ccc1OC (configuration not stated)         > 100 µM
11  CC1=CC(C)=NN=C(N)N1S(=O)(=O)c1cc(C)c(Cl)cc1SCc1ccccc1         > 100 µM
12  COc1cc2c3cc1Oc1c(O)c(OC)cc4c1C(Cc1ccc(O)c(c1)Oc1ccc(cc1)CC3N(C)CC2)N(C)CC4 (configuration not stated)          31.9 µM

###

# Test system: TK-10 renal
# ASSAY_SUMMARY: NCI tumour cell line growth inhibition, 48 h
We begin with a simple list: items and their reported TGI.
QUANTITY_MEASURED: TGI

> print(dat)
                                   compound  endpoint.result
1  O=C(O)[C@H](Cc1c[nH]c2ccccc12)N1C(=O)c2ccccc2C1=O         > 100 µM
2  N#CC(N=Nc1ccccc1C(=O)O)C(N)=O (configuration not stated)         > 100 µM
3  CC(=O)OCC1OC(n2ccc(=O)[nH]c2=O)C(OC(C)=O)C(OC(C)=O)C1OC(C)=O (configuration not stated)         > 100 µM
4  COC1CCON1C(=O)c1ccccc1 (configuration not stated)          > 10 µM
5  C[C@@]1(C(=O)O)CCC[C@]2(C)C1CC[C@@]13C[C@@](O)(CC[C@]12O)[C@@]1(CO1)C3 (some centres not stated)         > 100 µM
6      NCCSc1cc(O)c2c(c1N)C(=O)c1ccccc1C2=O         > 100 µM
7  Cc1nc(SCC(=O)Nc2ccc(Cl)cc2)c2sc(=S)n(-c3ccccc3)c2n1          > 10 µM

###

We begin with a simple list: items and their reported GI50.
# Test system: NCI/ADR-RES ovarian
# ASSAY_SUMMARY: NCI tumour cell line growth inhibition, 48 h
QUANTITY_MEASURED: GI50

COMPOUND	STUDY_SYSTEM	ENDPOINT_RESULT
COc1ccc(C#Cc2ccc(=O)oc2-c2cc(OC)c(OC)c(OC)c2)cc1O	NCI/ADR-RES ovarian	2.6 µM
Cn1c(=O)c(Oc2ccc(F)cc2F)cc2cnc(NC(C)(C)CO)nc21	NCI/ADR-RES ovarian	> 25 µM
COC(=O)C1=C(O)[C@H](C(=O)OC)C2(O)C(C(=O)OC)[C@H](c3ccc(OC(=O)C(C)c4ccccc4)cc3)C[C@@H]1[C@@H]2C(=O)OC (some centres not stated)	NCI/ADR-RES ovarian	> 50 µM
COc1cc2c(c(OC)c1OC)-c1ccc(O)cc1[C@@H](NC(C)=O)CC2	NCI/ADR-RES ovarian	0.533 µM
O=C1C(Cl)=C(Nc2ccc(Nc3ccccc3)c(NC3=C(Cl)C(=O)c4ccccc4C3=O)c2)C(=O)c2ccccc21	NCI/ADR-RES ovarian	27.5 µM
COC1C(O)CC(OC2CC(OC3CC(O[C@@H]4C(=O)c5c(cc6cc(OC7CC(OC8CC(O)C(O)C(C)O8)C(O)C(C)O7)c(C)c(O)c6c5O)CC4[C@H](OC)C(=O)O)OC(C)C3O)OC(C)C2O)OC1C (some centres not stated)	NCI/ADR-RES ovarian	10.3 µM
CSc1c(C2=C(c3cn(C)c4ccccc34)C(=O)NC2=O)c2ccccc2n1C	NCI/ADR-RES ovarian	1.02 µM

###

We begin with a simple list: items and their reported TGI.
# Tested on: SK-MEL-5 melanoma
# ASSAY_SUMMARY: NCI tumour cell line growth inhibition, 48 h
QUANTITY_MEASURED: TGI (µM)

> print(dat)
                                   molecule  quantity.measured  unit.string  inequality.sign  endpoint.result
1  O=C(CCl)NCCNc1nccc(Nc2ccc(S(=O)(=O)Nc3ccccn3)cc2)n1                TGI           µM                =             2.94
2  O=C/C1=C/C2=Cc3ccccc3C=C(/C=C(/C=O)C1)C2                TGI           µM                >              100
3                   NCCc1ccc(S(=O)(=O)F)cc1                TGI           µM                >              100
4  CCc1c2c(cc3c1CC1(C3)Cc3cc4c(c(C(=O)OC)c3C1)CCCC4)CCCC2 (stereo not given)                TGI           µM                >              100
5  COc1ccccc1Cc1ccc(C2C=CC3(CC(=O)C=C3C)C(=O)C2)o1 (stereo not given)                TGI           µM                =               29
